system: MALME-3M melanoma; assay: NCI-60 one-dose screen, 48 h (100 = growth as untreated, 0 = no growth, -100 = all killed); settings: 10 µM unless noted
Compounds without any hit were thinned out: in the full panel of roughly 83,000, 20% have a hit.
QUANTITY_MEASURED: growth (%)
The response must be a number in % with no trailing unit.

O=S(=O)(NCCCNc1nccc(-c2c(-c3cccc(O)c3)nc3occn23)n1)c1ccc(F)cc1 ... 17.9
N#Cc1cc(-c2nc3ccccc3s2)c(=O)n(NS(=O)(=O)c2ccc(Cl)cc2)c1N ... 105

Per the record, Clc1ccc(N2N=C(c3cccc(Nc4ccncc4)c3)CC2c2ccc(Br)cc2)cc1 (centres undefined) has growth of -40.5

Per the record, COc1ccc(C2CC(c3cccc(Nc4ccncc4)c3)=NN2c2cc(Cl)cc(Cl)c2)cc1 (centres undefined) has growth of -40.6

Per the record, `OC1(c2ccc(Cl)c(C(F)(F)F)c2)CCN(CCCC(c2ccc(F)cc2)c2ccc(F)cc2)CC1` has growth of -75.3

Per the record, `CS(=O)(=O)Nc1cc(-c2ccc3ncnc(Nc4ccc5[nH]ncc5c4)c3c2)cnc1Cl` has growth of 60.9

Per the record, `CN1CCN(c2ccc3nc(-c4cc(C(C)(C)C)c(O)c(C(C)(C)C)c4)[nH]c3c2)CC1` has growth of -91.6

Per the record, `O=C(Nc1nc(-c2ccccc2Cl)cs1)c1cc(-c2ccccc2)nc2ccc(Cl)cc12` has growth of 63.9

Per the record, `COc1ccc(/C=N/NC(=O)c2cccc3cc[nH]c23)cc1O` has growth of 43

Origin of values: PubChem BioAssay (NCI)
